pIC50, Dihydrofolate reductase (Bos taurus, UniProt P00376), per-entry values.
pIC50: −log10 of the molar value.

Prompt: pIC50 of Cc1nc(N)nc(Nc2cccc(Br)c2)n1 on Dihydrofolate reductase (Bos taurus, UniProt P00376)?
Completion: < 4.00

Prompt: pIC50 of NC1=NC2(CCCCC2)N(c2ccc(Cl)cc2)C(N)=N1 on Dihydrofolate reductase (Bos taurus, UniProt P00376)?
Completion: < 4.00

Prompt: pIC50 of COc1cccc(NC2=NC(N)=NC(C)(C)N2)c1 on Dihydrofolate reductase (Bos taurus, UniProt P00376)?
Completion: < 4.00

Prompt: pIC50 of CC1(C)N=C(N)NC(Nc2ccc(Br)cc2)=N1 on Dihydrofolate reductase (Bos taurus, UniProt P00376)?
Completion: < 4.00

Prompt: pIC50 of Nc1nc(CCl)nc(Nc2cccc(Br)c2)n1 on Dihydrofolate reductase (Bos taurus, UniProt P00376)?
Completion: < 4.00

Prompt: pIC50 of CC1(C)N=C(N)N=C(N)N1Cc1ccc(Cl)cc1 on Dihydrofolate reductase (Bos taurus, UniProt P00376)?
Completion: 4.52

Prompt: pIC50 of COc1ccc(N2C(N)=NC(N)=NC23CCCCC3)cc1 on Dihydrofolate reductase (Bos taurus, UniProt P00376)?
Completion: < 4.00
